target: Solute carrier family 2, facilitated glucose transporter member 1 (Homo sapiens) (UniProt P11166); test: ST_JUDE_LEISH: Cytotoxicity at 2uM final concentration against transgenic Leishmania Mexicana promastigotes LmGLUT1 that are glucose transport deficient and complemented with the human glucose transporter GLUT1. Activity is measured by DNA content using SYBR green in vitro; type: functional
Sequence (P11166 whole entry): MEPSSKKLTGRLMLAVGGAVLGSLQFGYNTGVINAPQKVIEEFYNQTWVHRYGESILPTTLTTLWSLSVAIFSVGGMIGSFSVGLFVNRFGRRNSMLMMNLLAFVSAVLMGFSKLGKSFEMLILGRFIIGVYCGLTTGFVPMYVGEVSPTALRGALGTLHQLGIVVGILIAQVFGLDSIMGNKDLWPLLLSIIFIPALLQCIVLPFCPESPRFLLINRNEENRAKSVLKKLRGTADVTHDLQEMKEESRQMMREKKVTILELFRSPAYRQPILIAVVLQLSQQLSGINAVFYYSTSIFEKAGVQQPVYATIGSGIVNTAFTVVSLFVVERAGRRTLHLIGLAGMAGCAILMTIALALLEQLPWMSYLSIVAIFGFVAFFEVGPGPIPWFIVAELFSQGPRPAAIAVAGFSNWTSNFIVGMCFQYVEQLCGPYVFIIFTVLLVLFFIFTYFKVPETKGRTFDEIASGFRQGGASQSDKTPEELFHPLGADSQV
Measured inhibition values are reported for all entries that follow.
Report only the number, with the unit % understood.

Known inhibition results, listed for orientation:
Fc1cccc(Nc2nc(NCc3ccc(Cl)c(Cl)c3)nc(Nc3cccc(F)c3)n2)c1 = 11.7
Cc1cccc2nc(-c3cccc(-c4cccc(NC(=O)Nc5ccccc5)c4)c3)[nH]c12 = 3.85
CC(C)(Oc1c(C2CCN(CCCCNC(=O)c3ccc(-c4ccc(Cl)cc4)cc3)CC2)ccc2c1CCCC2)C(N)=O = -2.15

// O=C(NC1CCCCC1)N(Cc1cccc(-c2cccc(CNC3CCCC3)c2)c1)C1CCN(Cc2ccccc2)CC1 : inhibition value = 8.95

// O=C(NCCCCN1CCC(c2ccc(Br)cc2)CC1)c1ccc(NC(=O)c2ccc(Cl)cc2)cc1 : inhibition value = -0.29

// COc1ccc(C2CC(c3cccs3)=NN2C(=O)c2ccco2)cc1OC (configuration not stated) : inhibition value = 5.38
